- Test system: SEM cells
- assay name: cell viability relative to DMSO control; higher = less cytotoxic
- measurement conditions: RPMI 5 mM glucose + 10% FBS; 48 h; 0.0632 µM
measurement type: cell viability (%)
# output: bare number, implied unit %

Worked cases, cell viability given:
INSERT INTO measurements (compound, measurement_type, measured_value) VALUES
  ('CCN(CC)CCOc1ccc(/C(=C(\Cl)c2ccccc2)c2ccccc2)cc1', 'cell viability', 118),
  ('Cc1nn(Cc2ccccc2Cl)c(C)c1CN(C)CC(O)COc1ccc(Cl)cc1 (stereo not drawn)', 'cell viability', 110),
  ('C[C@@]12C(=O)OC(=O)[C@@]1(C)C1CCC2O1', 'cell viability', 112),
  ('CC(=O)O[C@@]1(CC[C@H]2[C@@H]3\C=C(Cl)/C4=C/C(=O)[C@@H]5C[C@@H]5[C@]4(C)[C@H]3CC[C@]12C)C(C)=O', 'cell viability', 118),
  ('CC(C)(C)NC(=O)Nc1cccc(Nc2ncc(F)c(NC(C)(C)CO)n2)c1', 'cell viability', 115);

Pending compound:
stdin: Report cell viability for CC(C)CNc1ccnc(NCc2csc(-c3ccccc3)n2)n1 please.
stdout: 138

---

Documented cell viability across a set of molecules
- Tested on: P12-Ichikawa
- assay name: cell viability relative to DMSO control; higher = less cytotoxic
- measurement conditions: RPMI 5 mM glucose + 10% FBS; 48 h; 0.00234 µM
# output: bare number, implied unit %

stdin: Report cell viability for O=C1[C@H](Cc2ccc(O)cc2)N2C(=O)CCN(C(=O)NCc3ccccc3)[C@H]2CN1Cc1cccc2ccccc12 please.
stdout: 84.4

stdin: Report cell viability for CCOC(=O)[C@@H](N)Cc1ccc(-c2cc(O[C@H](c3ccc(Cl)cc3-n3ccc(C)n3)C(F)(F)F)nc(N)n2)cc1.O=C(O)CNC(=O)c1ccccc1 please.
stdout: 112

stdin: Report cell viability for C[C@]12CC[C@@H]3c4ccc(O)cc4CC[C@H]3[C@@H]1[C@@H](O)[C@@H](O)[C@@H]2O please.
stdout: 113

stdin: Report cell viability for CC1(C)O[C@@H]2C[C@H]3[C@@H]4C[C@H](F)C5=CC(=O)C=C[C@]5(C)[C@@]4(F)[C@@H](O)C[C@]3(C)[C@]2(C(=O)CO)O1 please.
stdout: 99.4

stdin: Report cell viability for Cn1cnc2c(F)c(Nc3ccc(Br)cc3F)c(C(=O)NOCCO)cc21 please.
stdout: 92.6

---

- System: SEM cells
- assay name: cell viability relative to DMSO control; higher = less cytotoxic
- measurement conditions: RPMI 5 mM glucose + 10% FBS; 48 h; 5.12 µM
Documented cell viability across a set of compounds

INSERT INTO measurements (compound, measured_target, measurement_type, measured_value) VALUES
  ('COCC1(CO)C(=O)C2CCN1CC2 (stereo not drawn)', 'SEM cells', 'cell viability', '99.3%'),
  ('O=C(Nc1cc(Cl)cc2c1[nH]c1cnccc12)c1cccnc1', 'SEM cells', 'cell viability', '138%'),
  ('COc1cc(OC2CCN(C)CC2)ccc1Nc1ncc2c(n1)n(C1CCCC1)c(=O)n2C', 'SEM cells', 'cell viability', '76.1%'),
  ('NC1=C(Cl)C(=CC=N1)OC2=C(F)C=C(NC(=O)\C3=C\N\C=C(C3=O)\C4=CC=C(F)C=C4)C=C2', 'SEM cells', 'cell viability', '49%'),
  ('C[C@@H](Oc1cc(-c2cnn(C3CCNCC3)c2)cnc1N)c1c(Cl)ccc(F)c1Cl', 'SEM cells', 'cell viability', '58.4%');

stdin: Report cell viability for CNC(=O)c1c(-c2ccc(F)cc2)oc2cc(N(CCO)[S+](C)(=O)[O-])c(C3CC3)cc12 please.
stdout: 23.8%

stdin: Report cell viability for C[C@]12CC[C@H]3[C@@H](CC[C@H]4NC(=O)\C=C/[C@]34C)[C@@H]1CC[C@@H]2C(=O)NC5=CC(=CC=C5C(F)(F)F)C(F)(F)F please.
stdout: 56%

stdin: Report cell viability for C[C@H](NC(=O)c1sccc1OCc1ccc(Cl)cc1)c1ccccc1 please.
stdout: 73.3%
